Where these numbers come from: ChEMBL document CHEMBL4219190

- Tested on: Escherichia coli
- assayComment: Antibacterial activity against Escherichia coli MTCC 739 after 24 hrs by well diffusion method
- Assay type: functional
- conditionInfo: MTCC 739, 24 h

{"smilesEntry": "CN1CCN(C(=O)c2nc(-c3ccccc3)c3c(C(F)(F)F)cc(-c4ccccc4)nc3n2)CC1", "MIC": "15.6 µg/mL"}
{"smilesEntry": "COc1ccc(-c2nc(C(=O)N3CCN(C)CC3)nc3nc(-c4ccccc4)cc(C(F)(F)F)c23)cc1", "MIC": "15.6 µg/mL"}
{"smilesEntry": "O=C(c1nc(-c2ccccc2)c2c(C(F)(F)F)cc(-c3ccccc3)nc2n1)N1CCN(CCO)CC1", "MIC": "15.6 µg/mL"}
{"smilesEntry": "O=C(O)c1cn(C2CC2)c2cc(N3CCNCC3)c(F)cc2c1=O", "MIC": "0.9 µg/mL"}
